The reported numbers originate from patent US20220061324A1.

system: Diabrotica balteata (Corn Root Worm); assay: Activity against Diabrotica balteata (corn root worm), maize sprouts sprayed; assay type: in vivo; details: 96 h, read-out: effect in at least one of the two categories (mortality or growth inhibition)
Each entry below carries its recorded percent control (mortality or growth inhibition) at 200 ppm.
quantity_measured: percent control (mortality or growth inhibition) at 200 ppm

{"structure_as_smiles": "CCS(=O)(=O)c1ccc(-n2cncn2)nc1-c1ncc2c(OCC(F)(F)C(F)(F)F)cccn12", "measured_target": "Diabrotica balteata (Corn Root Worm)", "value_observed": "≥ 80%"}
{"structure_as_smiles": "CCS(=O)(=O)c1cccnc1-c1ncc2c(OCC(F)(F)C(F)F)nccn12", "measured_target": "Diabrotica balteata (Corn Root Worm)", "value_observed": "≥ 80%"}
{"structure_as_smiles": "CCSc1cccnc1-c1ncc2c(OCC(F)(F)C(F)F)nccn12", "measured_target": "Diabrotica balteata (Corn Root Worm)", "value_observed": "≥ 80%"}
{"structure_as_smiles": "CCS(=O)(=O)c1cc(Br)cnc1-c1ncc2c(OCC(F)(F)C(F)(F)F)cccn12", "measured_target": "Diabrotica balteata (Corn Root Worm)", "value_observed": "≥ 80%"}
